The values you see were collected from PubChem BioAssay.

System: Aerobactin synthetase IucA (Klebsiella pneumoniae hvKP1)
test details: Biochemical IucA enzyme inhibition primary screen of the Spectrum library (AID 1346200);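 also: 100% = wells without compound and 0% = wells lacking enzyme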
experimental conditions: malachite green pyrophosphate, A620, at 8 µM, hits give low values

| compound | assayed target | activity remaining / % |
| --- | --- | --- |
| CC(=O)O[C@@H]1CC2C(C)(C)[C@H](O)C=C[C@]2(C)C2CC[C@]3(C)C(=CC(=O)O[C@H]3c3ccoc3)[C@@]21C (some centres undefined) | Aerobactin synthetase IucA (Klebsiella pneumoniae hvKP1) | 105 |
| CCC(C)(C)C(=O)O[C@H]1C[C@@H](C)C=C2C=C[C@H](C)[C@H](CC[C@@H]3C[C@@H](O)CC(=O)O3)[C@H]21 | Aerobactin synthetase IucA (Klebsiella pneumoniae hvKP1) | 106 |
| COc1cc(C(=O)N2CCOCC2)cc(OC)c1OC | Aerobactin synthetase IucA (Klebsiella pneumoniae hvKP1) | 111 |
| CC(=O)O[C@H]1CC[C@@]2(C)C(CC[C@]3(C)C2C(=O)C=C2C4[C@@H](C)[C@H](C)CC[C@]4(C(=O)O)CC[C@]23C)C1(C)C (some centres undefined) | Aerobactin synthetase IucA (Klebsiella pneumoniae hvKP1) | 113 |
| NC(=NCc1ccccc1)NC(=O)c1nc(Cl)c(N)nc1N | Aerobactin synthetase IucA (Klebsiella pneumoniae hvKP1) | 78.3 |
| CC(C)(Oc1ccc(C2CC2(Cl)Cl)cc1)C(=O)O (centres undefined) | Aerobactin synthetase IucA (Klebsiella pneumoniae hvKP1) | 116 |
| COc1ccccc1OCC(O)CO (centres undefined) | Aerobactin synthetase IucA (Klebsiella pneumoniae hvKP1) | 94.5 |
| CC(=O)Oc1cc(OC(C)=O)c2c(c1)O[C@H](c1ccc(OC(C)=O)c(OC(C)=O)c1)[C@H](OC(C)=O)C2 | Aerobactin synthetase IucA (Klebsiella pneumoniae hvKP1) | 108 |
| Oc1cc(Cl)ccc1Oc1ccc(Cl)cc1Cl | Aerobactin synthetase IucA (Klebsiella pneumoniae hvKP1) | 106 |
